# Study target: Adrenergic receptor alpha-1 (Homo sapiens) (UniProt P35348+P25100+P35368)
# Assay protocol: The compound was screened in vitro for functional activity against Alpha-1 adrenergic receptor subtypes of human prostate tissue
Collected pA2 values appear next to each entry.
The answer should be written as a number, with no unit following it.

These solved cases illustrate the format of a correct answer.
[
  {
    "Compound string": "COc1cc(F)ccc1N1CCN(CCCNc2ncccc2C(=O)N(C)C)CC1",
    "Recorded measurement": 8.5
  },
  {
    "Compound string": "Cc1nn(C)c2ncc(C(=O)N(C)C)c(NCCCN3CCN(c4ccccc4OCC(F)(F)F)CC3)c12",
    "Recorded measurement": 9
  },
  {
    "Compound string": "COc1cc(F)ccc1N1CCN(CCCNc2c(C(=O)N(C)C)cnc3c2c(C)nn3C)CC1",
    "Recorded measurement": 9.3
  }
]

In: Any idea what its pA2 is? The molecule is COc1ccccc1N1CCN(CCCNc2ncccc2C(=O)N(C)C)CC1
Out: 8.5
